Organism: Rattus norvegicus
Test: Open TG-GATES - Regimen: Single
Type: toxicity, organism-based, Sprague-Dawley
Parameters: regimen Single, gender Male, age 6 weeks
Settings: in vivo, po, 0 mg/kg, 3 h, tissue Kidney, route gavage, dose level Control
measurement_label: KIDNEY_R (g)
State the answer as a number, implicitly in g.

Solved entries (count: 5):
OCCN1CCN(CCCN2c3ccccc3Sc3ccc(C(F)(F)F)cc32)CC1 :: 0.9
C[C@H]1C(=O)O[C@@H]2CCN3CC=C(COC(=O)[C@](C)(O)[C@]1(C)O)[C@H]23 :: 1
CCOC(=O)C(C)(C)Oc1ccc(Cl)cc1 [CLOFIBRATE] :: 0.9
Cc1cccc(C)c1OCC(C)N (stereo unspecified) :: 0.9
C[C@H]1O[C@H](O[C@H]2[C@H](O)[C@@H](O)[C@@H](O[C@H]3[C@H](O)[C@@H](O)C(O)O[C@@H]3CO)O[C@@H]2CO)[C@H](O)[C@@H](O)[C@@H]1N[C@H]1C=C(CO)[C@@H](O)[C@H](O)[C@H]1O (stereo partly specified) :: 0.9

I would be grateful if you could share the reported KIDNEY_R for Cc1ccc2cc3c(ccc4ccccc43)c3c2c1CC3 .
0.9

###

Measured DBIL accompanies every entry in the list below.
Species: Rattus norvegicus
Experiment: Open TG-GATES - Regimen: Single
Assay type: toxicity, organism-based, Sprague-Dawley
Set-up: regimen Single, gender Male, age 6 weeks
Conditions: in vivo, po, 0 mg/kg, 3 h, tissue Plasma, route gavage, dose level Control

Known DBIL results, listed for orientation:
O=[N+]([O-])c1ccc(O)c([N+](=O)[O-])c1 :: 0.01 mg/dL
C[C@H]1C(=O)O[C@@H]2CCN3CC=C(COC(=O)[C@](C)(O)[C@]1(C)O)[C@H]23 :: 0.002 mg/dL
Cc1ccc2cc3c(ccc4ccccc43)c3c2c1CC3 :: 0.002 mg/dL
Cn1cc[nH]c1=S :: 0.002 mg/dL
C=C(C)[C@H]1Cc2c(ccc3c2O[C@@H]2COc4cc(OC)c(OC)cc4[C@@H]2C3=O)O1 :: 0.01 mg/dL
Cc1cccc(C)c1OCC(C)N (centres undefined) :: 0 mg/dL
CCOC(=O)C(C)(C)Oc1ccc(Cl)cc1 [CLOFIBRATE] :: 0.4 mg/dL
OCCN1CCN(CCCN2c3ccccc3Sc3ccc(C(F)(F)F)cc32)CC1 :: 0.006 mg/dL

Requested read-out: DBIL. Entry: C[C@H]1O[C@H](O[C@H]2[C@H](O)[C@@H](O)[C@@H](O[C@H]3[C@H](O)[C@@H](O)C(O)O[C@@H]3CO)O[C@@H]2CO)[C@H](O)[C@@H](O)[C@@H]1N[C@H]1C=C(CO)[C@@H](O)[C@H](O)[C@H]1O (some centres undefined)
0.006 mg/dL

###

Species: Rattus norvegicus
Assay: Open TG-GATES - Regimen: Daily Repeat
Assay type: toxicity, organism-based, Sprague-Dawley
Design: regimen Daily Repeat, gender Male, age 6 weeks
Conditions: in vivo, po, 0 mg/kg, […], tissue Blood, route gavage, dose level Control, time 7 day
measurement_label: MCHC (%)
# output: bare number, implied unit %

Take a look at these entries with their results.
O=C1CN(/N=C/c2ccc([N+](=O)[O-])o2)C(=O)N1 :: 35.2
Cn1cc[nH]c1=S :: 36.5
O=[N+]([O-])c1ccc(O)c([N+](=O)[O-])c1 :: 33.9

Sample C=C(C)[C@H]1Cc2c(ccc3c2O[C@@H]2COc4cc(OC)c(OC)cc4[C@@H]2C3=O)O1 — what was its MCHC?
32.8

Would you kindly share the measured MCHC for CCOC(=O)C(C)(C)Oc1ccc(Cl)cc1 [CLOFIBRATE] ?
35.2

Look up MCHC: Cc1cccc(C)c1OCC(C)N (centres undefined)
32.5

Consider the compound shown here: C[C@H]1O[C@H](O[C@H]2[C@H](O)[C@@H](O)[C@@H](O[C@H]3[C@H](O)[C@@H](O)C(O)O[C@@H]3CO)O[C@@H]2CO)[C@H](O)[C@@H](O)[C@@H]1N[C@H]1C=C(CO)[C@@H](O)[C@H](O)[C@H]1O (some centres undefined) What is its recorded MCHC?
33.3

Returns the measured MCHC for the input compound. Input: OCCN1CCN(CCCN2c3ccccc3Sc3ccc(C(F)(F)F)cc32)CC1
33.5

Fill in: MCHC of C[C@H]1C(=O)O[C@@H]2CCN3CC=C(COC(=O)[C@](C)(O)[C@]1(C)O)[C@H]23 is ___
34.7

src = ChEMBL document CHEMBL3885861
